# procedure.text: Solubility in formulation vehicles (Solutol HS-15/PEG400, Captisol)
# Type: physicochemical
# measurement.parameters: 50% Captisol solution, aqueous with cosolvent or surfactant or cyclodextrin
Counter-ions that a name gives are not always drawn.
measure: solubility (mg/mL)

>>> print(df.to_string())
                                   compound     measure  test_result
0  CN(C)CCCOC(=O)N(C)c1oc(-c2cc(Cl)cc(Cl)c2Cl)nc1C#N [Compound 52, hydrochloride]  solubility           27

---

# assay.target: h12/15-LOX (Homo sapiens (Human), UniProt P16050)
# Sequence (P16050 whole entry): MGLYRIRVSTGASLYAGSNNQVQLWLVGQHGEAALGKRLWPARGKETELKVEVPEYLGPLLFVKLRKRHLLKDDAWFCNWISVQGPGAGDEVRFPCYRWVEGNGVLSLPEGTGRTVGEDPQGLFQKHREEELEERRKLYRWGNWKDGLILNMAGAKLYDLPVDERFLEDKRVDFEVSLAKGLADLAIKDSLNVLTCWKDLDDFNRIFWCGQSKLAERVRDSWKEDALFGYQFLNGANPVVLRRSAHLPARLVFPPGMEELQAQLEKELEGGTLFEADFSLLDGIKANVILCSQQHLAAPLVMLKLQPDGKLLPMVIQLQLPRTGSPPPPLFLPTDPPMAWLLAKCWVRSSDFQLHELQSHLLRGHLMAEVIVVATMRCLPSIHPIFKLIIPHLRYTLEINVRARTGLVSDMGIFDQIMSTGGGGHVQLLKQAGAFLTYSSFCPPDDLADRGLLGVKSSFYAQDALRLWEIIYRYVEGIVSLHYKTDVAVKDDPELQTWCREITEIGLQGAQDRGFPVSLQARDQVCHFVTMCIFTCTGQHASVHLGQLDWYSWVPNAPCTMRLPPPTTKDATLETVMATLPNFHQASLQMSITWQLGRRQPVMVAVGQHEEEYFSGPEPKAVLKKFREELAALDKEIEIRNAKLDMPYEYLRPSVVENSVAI
# procedure.text: 12/15-LOX enzyme inhibition IC50 assay (Examples 1 and 2)
Where a name gives a salt, the structure may show the parent alone.
Please use yes (1) for IC50 under 400 nM and no (0) for everything else, ties included.

                                    molecule                              assay_target  class_label
 0  N#Cc1nc(-c2cc(Cl)cc(Cl)c2Cl)oc1NCCOCCN1CCC(F)C1 (stereo not shown)  h12/15-LOX (Homo sapiens (Human), UniProt P16050)       no (0)
 1  N#Cc1nc(-c2cc(Cl)cc(Cl)c2Cl)oc1NCCOCCOc1cccnc1  h12/15-LOX (Homo sapiens (Human), UniProt P16050)      yes (1)
 2  N#Cc1nc(-c2cc(Cl)cc(Cl)c2Cl)oc1NCCOCCOc1ccncc1  h12/15-LOX (Homo sapiens (Human), UniProt P16050)      yes (1)
 3  CN(C)CCCCCC(=O)N(C)c1oc(-c2cc(Cl)cc(Cl)c2Cl)nc1C#N [Compound 61, hydrochloride]  h12/15-LOX (Homo sapiens (Human), UniProt P16050)       no (0)
 4  CN(CCF)CCOCCNc1oc(-c2cc(Cl)cc(Cl)c2Cl)nc1C#N  h12/15-LOX (Homo sapiens (Human), UniProt P16050)       no (0)
 5  COCCOCCOCCNc1oc(-c2cc(Cl)cc(Cl)c2Cl)nc1C#N  h12/15-LOX (Homo sapiens (Human), UniProt P16050)       no (0)
 6  COCCNc1oc(-c2cc(Cl)cc(C(F)(F)F)c2Cl)nc1C#N  h12/15-LOX (Homo sapiens (Human), UniProt P16050)      yes (1)
 7          CNc1oc(-c2cc(Cl)cc(Cl)c2F)nc1C#N  h12/15-LOX (Homo sapiens (Human), UniProt P16050)      yes (1)
 8  CN(CCOCCNc1oc(-c2cc(Cl)cc(Cl)c2Cl)nc1C#N)c1ccncc1  h12/15-LOX (Homo sapiens (Human), UniProt P16050)       no (0)
 9      C=CCNc1oc(-c2cc(Cl)cc(Cl)c2Cl)nc1C#N  h12/15-LOX (Homo sapiens (Human), UniProt P16050)      yes (1)
10  N#Cc1nc(-c2cc(Cl)cc(Cl)c2Cl)oc1NCCOCCOCC(F)(F)F  h12/15-LOX (Homo sapiens (Human), UniProt P16050)      yes (1)
11  CN(C)CCCOC(=O)Nc1oc(-c2cc(Cl)cc(Cl)c2Cl)nc1C#N [Compound 57, hydrochloride]  h12/15-LOX (Homo sapiens (Human), UniProt P16050)       no (0)
12  Cc1cc(Cl)c(Cl)c(-c2nc(C#N)c(NCCCCO)o2)c1  h12/15-LOX (Homo sapiens (Human), UniProt P16050)       no (0)
13  N#Cc1nc(-c2cc(Cl)cc(Cl)c2Cl)oc1NCCOCCOCCOc1ccncc1  h12/15-LOX (Homo sapiens (Human), UniProt P16050)       no (0)
14      N#Cc1nc(-c2cc(Cl)cc(Cl)c2Cl)oc1NCCCO  h12/15-LOX (Homo sapiens (Human), UniProt P16050)       no (0)
15     N#Cc1nc(-c2cc(Cl)cc(Cl)c2Cl)oc1NCCCCO  h12/15-LOX (Homo sapiens (Human), UniProt P16050)       no (0)
16  COCCNc1oc(-c2cc(Cl)cc(Cl)c2OC(F)F)nc1C#N  h12/15-LOX (Homo sapiens (Human), UniProt P16050)      yes (1)
17   CNc1oc(-c2cc(C(F)(F)F)cc(Cl)c2Cl)nc1C#N  h12/15-LOX (Homo sapiens (Human), UniProt P16050)       no (0)
18      COCCNc1oc(-c2cc(Cl)cc(Cl)c2Cl)nc1C#N  h12/15-LOX (Homo sapiens (Human), UniProt P16050)      yes (1)
